# Tested On: 5-lipoxygenase (Homo sapiens, UniProt P09917)
# Sequence (P09917 whole entry): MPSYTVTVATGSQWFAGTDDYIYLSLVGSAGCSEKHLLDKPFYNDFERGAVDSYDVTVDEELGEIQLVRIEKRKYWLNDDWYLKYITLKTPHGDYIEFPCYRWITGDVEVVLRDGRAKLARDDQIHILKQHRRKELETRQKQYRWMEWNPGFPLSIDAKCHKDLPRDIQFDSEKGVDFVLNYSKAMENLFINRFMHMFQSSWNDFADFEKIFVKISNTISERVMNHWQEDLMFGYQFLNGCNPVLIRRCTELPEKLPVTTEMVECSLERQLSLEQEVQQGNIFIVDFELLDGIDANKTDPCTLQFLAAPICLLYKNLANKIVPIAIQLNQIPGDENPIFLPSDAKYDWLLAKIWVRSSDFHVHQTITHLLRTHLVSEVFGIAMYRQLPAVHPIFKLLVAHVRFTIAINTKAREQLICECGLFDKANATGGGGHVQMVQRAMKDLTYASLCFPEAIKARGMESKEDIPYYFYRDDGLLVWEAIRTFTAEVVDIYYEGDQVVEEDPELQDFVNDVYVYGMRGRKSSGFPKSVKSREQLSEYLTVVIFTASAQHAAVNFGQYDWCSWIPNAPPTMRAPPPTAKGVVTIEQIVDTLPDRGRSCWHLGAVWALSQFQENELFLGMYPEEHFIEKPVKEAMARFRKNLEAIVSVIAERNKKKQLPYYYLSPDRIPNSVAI
# Measurement Protocol: 5-Lipoxygenase Enzyme Assay (colorimetric, ferric oxidation of xylenol orange)
# Format: biochemical
# Parameters: purchased Cayman 60402
# Measurement Conditions: read-out: in vitro IC50 value in a 5-LO enzyme assay
Measurement Label: IC50

Compound	Tested On	IC50
CC(=O)Nc1ccc(C=Cc2ccc(O)c(O)c2)cc1	5-lipoxygenase (Homo sapiens, UniProt P09917)	< 5 µM
C=CCSCc1c(O)c(C)c(C)c2c1CCC(C)(C)O2	5-lipoxygenase (Homo sapiens, UniProt P09917)	< 5 µM
Cc1c(O)c(C)c2c(c1I)OC(C)(C)CC2 [8-iodo-2,2,5,7-tetramethylchroman-6-ol]	5-lipoxygenase (Homo sapiens, UniProt P09917)	< 5 µM

QUERY: Which value of IC50 has been reported for "CS(=O)(=O)Nc1ccc(C=Cc2ccc(O)c(O)c2)cc1" in the records?
RESULT: < 5 µM

QUERY: Which value of IC50 has been reported for "COCOc1ccc(C=Cc2ccc(C(C)(C)C)cc2)cc1OCOC" in the records?
RESULT: < 5 µM

QUERY: Which value of IC50 has been reported for "COC(=O)c1ccc(C=Cc2ccc(O)c(O)c2CC=C(C)C)cc1" in the records?
RESULT: < 5 µM
